Entry source: the METLIN SMRT retention time set (Domingo-Almenara et al. 2019)

experiment: gradient 5% acetonitrile 3 min, to 50% in 2 min, to 85% in 15 min, held 3 min, 100 µL/min; details: column: Zorbax Extend-C18 2.1 x 50 mm; eluents: water / acetonitrile, 0.1% formic acid
# reported RP-LC retention time; entries follow

MOLECULE	RP-LC retention time [s]
Cc1cc(C)c(S(=O)(=O)N2CCc3nc[nH]c3C2)cc1C	643
COC(=O)c1ncn2c1C(=O)N(Cc1ccc(F)cc1)C(C)(C(=O)NCc1ccc(C)cc1)C2 (stereo not drawn)	772
CCc1noc(NC(C)=O)c1-c1ccc(OC)c(S(=O)(=O)N2CCCC2)c1	710
Cc1[nH]c2ccccc2c1C(=O)C(=O)NC1CCCCC1	798
Cc1ccc(NC(=O)C2CC(=O)N(CCc3c[nH]c4ccc(C)cc34)C2)c(C)c1 (stereo not drawn)	842
CN(C(=O)Cn1cnc2c(-c3ccc(Cl)cc3)csc2c1=O)c1ccccc1	1020
CCCNC(=O)c1cnn(-c2cc(-c3nc(C)no3)ccn2)c1C	772
Cc1c(C(=O)Nc2ccnn2Cc2ccco2)oc2cc(Br)ccc12	1020
O=C(C1=NN(Cc2ccccc2)c2ccccc2S1(=O)=O)N1CCCC1	784
O=C(NCCc1ccccc1)C(=O)NCCc1cccs1	832
N#Cc1ccc(C(=O)N2CCCC2c2nc(-c3cccc(C(F)(F)F)c3)no2)cc1 (stereo not drawn)	1060
O=C(NCc1ccccc1)c1ccc(NC(=O)C2CCC2)cc1N1CCOCC1	842
COC(=O)c1ccccc1NC(=O)Cn1ccn2nc(-c3ccccc3)c(CO)c2c1=O	884
COC(=O)c1[nH]c(C)c(C(=O)C(C)N(CC2CCCCC2)C(=O)c2ccc(OC)cc2)c1C (stereo not drawn)	708
Cc1oc(C2CCN(C(=O)Cc3cccs3)CC2)nc1C(=O)N1CCSCC1	742
CC(=O)NCCCOc1ccc([N+](=O)[O-])cc1Cl	786
O=C(NCC1CCN(C(=O)Nc2ccc(F)cc2)CC1)Oc1ccccc1	772
CCOC(=O)c1c(C)[nH]c(C)c1S(=O)(=O)N1CCC(C(=O)N2CCn3c2nc2ccccc23)CC1	725
CCOc1cc(C(=O)N2CCN(c3cc(=O)n(C)c(=O)n3C)CC2)cc(OCC)c1OCC	730
COC(=O)C1=C(C)NC(=O)NC1c1ccc(Cl)c(Cl)c1 (stereo not drawn)	726
C#CCOCC1CCCN(S(=O)(=O)c2cc(F)ccc2OC)C1 (stereo not drawn)	871
CC(Cc1ccccc1)NC(N)=O (stereo not drawn)	698
COCCC1CCN(C(=O)c2n[nH]c3ccccc23)CC1	709
